Where do these numbers come from? They come from patent US20100173935A1.

tested-on: human M4 receptor (Homo sapiens, UniProt P08173)
Construct: purchased Perkin-Elmer RBHM4M; host or cells: CHO cell membranes
Sequence (P08173 1-479): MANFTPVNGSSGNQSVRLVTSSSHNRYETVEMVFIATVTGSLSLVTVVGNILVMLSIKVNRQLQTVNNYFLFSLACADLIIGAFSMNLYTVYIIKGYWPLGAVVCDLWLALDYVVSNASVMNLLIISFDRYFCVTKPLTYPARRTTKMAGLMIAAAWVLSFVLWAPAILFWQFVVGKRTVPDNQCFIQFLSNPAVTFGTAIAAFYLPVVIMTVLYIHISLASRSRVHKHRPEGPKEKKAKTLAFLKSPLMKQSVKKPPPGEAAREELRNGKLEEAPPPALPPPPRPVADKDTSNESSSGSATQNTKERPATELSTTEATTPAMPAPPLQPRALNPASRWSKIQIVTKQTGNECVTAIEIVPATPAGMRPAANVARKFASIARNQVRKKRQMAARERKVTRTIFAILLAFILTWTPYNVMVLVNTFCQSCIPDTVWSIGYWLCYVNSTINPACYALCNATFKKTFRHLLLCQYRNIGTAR
assay-comment: hM4 receptor GTPγS binding
Assay type: biochemical
condition-notes: CHO membranes expressing cloned human M4, [35S]GTPγS binding; read-out: hM4 EC50
pEC50: −log10 of the molar value.
property-name: pEC50

So for `Cn1c(=O)n(C2CCN([C@H]3CCN(C(=O)CCN4CCCC4=O)C3)CC2)c2ccccc21` , the logged pEC50 turned out to be < 4.52

Continuing:
So for `CCOC(=O)N1CC[C@@H](N2CCC(n3c(=O)[nH]c4ccccc43)CC2)C1` , the logged pEC50 turned out to be < 4.52

So for CCOC(=O)N1CCC(N2CCC(C3C(=O)Nc4ccccc43)CC2)C1 (stereo not drawn) , the logged pEC50 turned out to be < 4.52
